# assay_text: Open-label clinical trial: plasma hormone pharmacokinetics after buccal LINGUET tablet, single dose and two weeks twice daily
# Format: in vivo, post-menopausal women
# condition_context: female, human, in vivo; plasma, after the first dose (half LINGUET tablet, buccal); read-out: Tmax Day 1
# Method: The trial was conducted with approval of an ethics committee within the hospital. The excipients in the LINGUET tablets consisted of silica gel, magnesium stearate, acacia, stevia and polyethylene glycol with a wildberry flavour. […] Pre-dose (0), 0.25, 0.5, 0.75, 1.0, 1.5, 2.0, 3.0, 4.0, 6.0, 8.0, 12.0, 16.0, […] and 24.0 h following the single dose, and at pre-dose (0), 0.25. […] Actual times were recorded, and these were used for the pharmacokinetic calculations. […]
property_measured: Tmax (min)

[[record]]
molecule = "C[C@]12CC[C@H]3[C@@H](CCC4=CC(=O)CC[C@@]43C)[C@@H]1CC[C@@H]2O [Testosterone, testosterone]"
result_value = 36


* * *

# assay_text: Open-label clinical trial: plasma hormone pharmacokinetics after buccal LINGUET tablet, single dose and two weeks twice daily
# Format: in vivo, post-menopausal women
# condition_context: female, human, in vivo; plasma, after the first dose (half LINGUET tablet, buccal); read-out: Cmax Day 1
property_measured: Cmax (nM)

[[record]]
smiles_str = "C[C@]12CC[C@H]3[C@@H](CCC4=CC(=O)CC[C@@]43C)[C@@H]1CC[C@@H]2O"
property_measured = "Cmax"
result_value = 31.6


* * *

# assay_text: Open-label clinical trial: plasma hormone pharmacokinetics after buccal LINGUET tablet, single dose and two weeks twice daily
# Type: in vivo, post-menopausal women
# condition_context: female, human, in vivo, Tmax Steady-state
# Experimental: The trial was conducted with approval of an ethics committee within the hospital. The excipients in the LINGUET tablets consisted of silica gel, magnesium stearate, acacia, stevia and polyethylene glycol with a wildberry flavour. […] Pre-dose (0), 0.25, 0.5, 0.75, 1.0, 1.5, 2.0, 3.0, 4.0, 6.0, 8.0, 12.0, 16.0, […] and 24.0 h following the single dose, and at pre-dose (0), 0.25. […] Actual times were recorded, and these were used for the pharmacokinetic calculations. […]
property_measured: Tmax

[[record]]
molecule = "CC(=O)[C@H]1CC[C@H]2[C@@H]3CCC4=CC(=O)CC[C@]4(C)[C@H]3CC[C@]12C [Progesterone, progesterone]"
property_measured = "Tmax"
result_value = "1 h"


* * *

# assay_text: Open-label clinical trial: plasma hormone pharmacokinetics after buccal LINGUET tablet, single dose and two weeks twice daily
# Assay type: in vivo, post-menopausal women
# condition_context: female, human, in vivo, Cmax Day 1
property_measured: Cmax

[[record]]
compound = "CC(=O)[C@H]1CC[C@H]2[C@@H]3CCC4=CC(=O)CC[C@]4(C)[C@H]3CC[C@]12C [Progesterone, progesterone]"
result_value = "0.0229 µM"


* * *

# assay_text: Open-label clinical trial: plasma hormone pharmacokinetics after buccal LINGUET tablet, single dose and two weeks twice daily
# Type: in vivo, post-menopausal women
# condition_context: plasma, after the first dose (half LINGUET tablet, buccal); read-out: Cmax Day 1
# Experimental: The trial was conducted with approval of an ethics committee within the hospital. The excipients in the LINGUET tablets consisted of silica gel, magnesium stearate, acacia, stevia and polyethylene glycol with a wildberry flavour. […] Pre-dose (0), 0.25, 0.5, 0.75, 1.0, 1.5, 2.0, 3.0, 4.0, 6.0, 8.0, 12.0, 16.0, […] and 24.0 h following the single dose, and at pre-dose (0), 0.25. […] Actual times were recorded, and these were used for the pharmacokinetic calculations. […]
property_measured: Cmax (nM)

[[record]]
compound = "C[C@]12CC[C@H](OS(=O)(=O)O)CC1=CC[C@@H]1[C@@H]2CC[C@]2(C)C(=O)CC[C@@H]12 [DHEA-sulphate, dehydroepiandrosterone-sulphate]"
property_measured = "Cmax"
unit_descriptor = "nM"
result_value = 2.2

